Overview of reported Emax across a group of molecules:
test system: Intracellular cAMP levels in differentiated cells (L6-myotubes); test: Measurement of intracellular cAMP levels (alpha screen cAMP kit); format: cell-based; conditions: 0.25 h; agonist final concentration 1×10-^5, 15 min; differentiated cells; relative to isoproterenol; read-out: Biological example 2: intracellular cAMP levels, activity compared to that of isoproterenol
Structures can show the parent of a compound that is named as a salt.
result-type: Emax

# molecule, subject-of-test, result
data = [
    ("CCC[C@@H]1CC[C@@H]([C@H](O)c2cccc(F)c2)N1 [Example 43, Hydrochloride]", "Intracellular cAMP levels in differentiated cells (L6-myotubes)", "< 25%"),
    ("CCC[C@@H]1CC[C@H]([C@H](O)c2cccc(O)c2)N1", "Intracellular cAMP levels in differentiated cells (L6-myotubes)", "25 to 50%"),
    ("CCC[C@H]1CCC[C@@H]([C@H](O)c2cccc(F)c2)N1 [Example 34, hydrochloride]", "Intracellular cAMP levels in differentiated cells (L6-myotubes)", "< 25%"),
    ("CCC[C@@H]1CCC[C@H]([C@@H](O)c2cccc(F)c2)N1", "Intracellular cAMP levels in differentiated cells (L6-myotubes)", "< 25%"),
]
